Study target: HLA-A*0203 (Homo sapiens, UniProt P04439, A173T/D140Y/D185E/D98H/E277Q/G131W/G231S/I119V/I121R/I166T/I218V/L180W/L300P/L318F/N151K/N90K/P208A/P217A/Q86G/Q94H/R138H/R169H/T345S)
Format: binding
Details: Table XXII, A2 supermotif peptides and analogs
Where a SMILES comes first, the peptide text is derived from it. [ ]: non-standard residue; d: D form. Abu = CC[C@H](N)C(=O)O
I'd appreciate it if you marked entries rule met when IC50 is lower than 20 nM and rule not met when it is not.

// known answers, use as guide
Compound | Assigned class
CC[C@H](NC(=O)[C@H](CC(C)C)NC(=O)[C@H](C)N)C(=O)N[C@@H](CCCNC(=N)N)C(=O)N[C@@H](Cc1c[nH]c2ccccc12)C(=O)NCC(=O)N[C@@H](CC(C)C)C(=O)N[C@@H](CC(C)C)C(=O)N[C@@H](CC(C)C)C(=O)O | rule met
CC[C@H](C)[C@H](NC(=O)[C@H](CCC(=O)O)NC(=O)[C@@H](NC(=O)[C@H](CC(C)C)NC(=O)[C@@H](N)CO)[C@@H](C)O)C(=O)N[C@@H](CC(C)C)C(=O)N[C@@H](CCCCN)C(=O)NCC(=O)NCC(=O)N[C@H](C(=O)O)C(C)C | rule not met

IN: # TODO verify IC50 < 20 nM strictly for this compound: CC[C@H](NC(=O)[C@H](CCSC)NC(=O)[C@H](C)N)C(=O)N[C@@H](CCCNC(=N)N)C(=O)N[C@@H](Cc1c[nH]c2ccccc12)C(=O)NCC(=O)N[C@@H](CC(C)C)C(=O)N[C@@H](CC(C)C)C(=O)N[C@H](C(=O)O)C(C)C [Her2/neu.5M2B3V9] (H-AM[Abu]RWGLLV-OH)
OUT: rule met

IN: Is IC50 strictly under 20 nM for the entry CC[C@H](NC(=O)[C@H](CCCCN)NC(=O)[C@@H](NC(=O)[C@H](CCSC)NC(=O)[C@@H](NC(=O)[C@H](CC(C)C)NC(=O)[C@@H](N)Cc1ccc(O)cc1)[C@@H](C)CC)C(C)C)C(=O)N[C@@H](Cc1c[nH]c2ccccc12)C(=O)N[C@@H](CCSC)C(=O)N[C@H](C(=O)O)C(C)C [Her2/neu.952L2B7V10] (H-YLIMVK[Abu]WMV-OH) ?
OUT: rule not met

IN: # strict comparison: is reported IC50 < 20 nM? input = CC[C@H](NC(=O)[C@@H](NC(=O)[C@H](C)N)C(C)C)C(=O)N[C@@H](CCCNC(=N)N)C(=O)N[C@@H](Cc1c[nH]c2ccccc12)C(=O)NCC(=O)N[C@@H](CC(C)C)C(=O)N[C@@H](CC(C)C)C(=O)N[C@H](C(=O)O)C(C)C [Her2/neu.5V2B3V9] (H-AV[Abu]RWGLLV-OH)
OUT: rule not met

====

Study target: DRB1*1101 (DR5w11) (Homo sapiens, UniProt P01903+P01911, A100R/A169T/A87E/I96F/K41T/L162R/M171V/P40S/Q125H/Q178H/Q39Y/Q99D/R42S/S66Y/T262R/V115G/W38E)
Sequence (P01903 26-254 limits assumed, other chains not shown): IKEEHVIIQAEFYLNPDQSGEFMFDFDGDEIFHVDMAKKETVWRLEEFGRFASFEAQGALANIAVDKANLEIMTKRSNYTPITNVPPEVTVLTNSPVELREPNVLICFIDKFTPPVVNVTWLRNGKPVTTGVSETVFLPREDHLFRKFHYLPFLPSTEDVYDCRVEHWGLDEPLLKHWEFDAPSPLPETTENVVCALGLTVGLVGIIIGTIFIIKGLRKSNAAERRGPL
Test name: HLA class II peptide binding assay, purified HLA
Details: Table XIX, DR supermotif peptides; unit not given
Quantity: DR5w11 binding data
Numbers only.

IN: Complete the entry with DR5w11 binding data for "CC[C@H](C)[C@H](NC(=O)[C@H](CCSC)NC(=O)[C@H](Cc1c[nH]c2ccccc12)NC(=O)[C@H](CS)NC(=O)[C@H](CCCCN)NC(=O)[C@@H](NC(=O)[C@H](CCSC)NC(=O)[C@@H](NC(=O)[C@H](CCSC)NC(=O)[C@H](Cc1ccc(O)cc1)NC(=O)[C@@H](NC(=O)[C@@H](N)CC(=O)O)C(C)C)[C@@H](C)CC)C(C)C)C(=O)N[C@@H](CC(=O)O)C(=O)N[C@@H](CO)C(=O)N[C@@H](CCC(=O)O)C(=O)O"
OUT: 0.0220
